B1: TPR t1 (parent)
chain: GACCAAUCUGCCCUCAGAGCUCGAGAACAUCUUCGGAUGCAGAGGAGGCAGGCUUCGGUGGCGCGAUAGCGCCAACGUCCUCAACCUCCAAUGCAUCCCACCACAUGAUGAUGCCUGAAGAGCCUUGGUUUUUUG

Variants of: B1
Experiment description: polymerase ribozyme fitness, log enrichment relative to wild type (log ratio); higher = more active; in vitro selection for triplet polymerase activity
Classify by measured polymerase ribozyme fitness (log ratio): YES if it is equal to or exceeds -3, NO if it is smaller.

seq_string="GACCAAUUUGCCCUCAGUGCUCGAGAACAUCUUCGGAUGCAGAGGAGGCAGGCUUCGGUGGCGCGAUAGCGCCAACGUCCUCAACCUCCAAUGCAUCCCACCACAUGAUGAUGCCUGAAGAGCCUUGGUUUUUUG [C8U A18U]" label=YES
seq_string="GACCAAUCUGCCCUCAGAGCUCGAGAACAUAUUCGGAUGCAGGGGAGGCAGGCUUCGGGGGCGCGAUAGCGCCAACGUCCUCAACCUCCAAUGCAUCGCGCCACAUGAUGGUGCCUGAAGAGCCUUGGUUUUUUG [C31A A43G U59G C98G A100G A111G]" label=NO
seq_string="GACCAAUCUGCCCUCAGAGCUCGAGAACAUCUUCGGAUUCAGAGGAGGCAGGCUUCGGUGGCGCGAUAGCGCCAACGUCCUCAACCUCCAAUGCAUCCCACCACAUGAUGAUGCCUUAAGAGCCUUGGUUUUUUG [G39U G117U]" label=NO
seq_string="GACCAAUCUGCCCUCAGAGCUCGAGAACAUCUUCGGAUGCAGAGGAGGCAGGCUUCGGUGUCGCGAUAGCGCCAACGUCCUCAACCUCCAAUGCAUCCCACCACAUGAUGAUGCCUAAAGAGCCUUGGUUUUUUG [G61U G117A]" label=YES
seq_string="GACCAAUCUGCCCUCAGAGCUCGAGAACAUCUUCGGAUUCAGAGGAGGCAGGAUUCGGUGGCUCGAUAGCGCCAACGUCCUCAACCUCCAAUGCAUCCCACCACAUGAUGAUGCCUGAAGAGCCUAGGUUUUUUG [G39U C53A G63U U126A]" label=NO
seq_string="GACCAAUCUGCCCUCAGAGCUCGAGAACAUCUUCGGAUUCAGAGGAGGCAGGGUUCGGUGGCGCGAUAGCGCCAACGUCCUCAACCUCCAAUGCAUCCCACCACAUGAUGAUGCCCGAAGAGCCUUGGUUUUUUG [G39U C53G U116C]" label=YES
seq_string="GACCAAUCUGCCCUCAGAGCUCGAGAACAUCUUCGGAUGAAGUGGAGGCAGGCUUCGGUGGCGCGAUAGCGCCAACGUCCUCAACCUCCAAUGCAUCCCACCACAUGAUGAUGCCUGAAGAGCCUUGGUUUUUUG [C40A A43U]" label=YES
seq_string="GACCAAUCUGCCCUCAGAGCUCGAGAACAUCUUCGGAUACAGAGGAGACAGGCUUCGGUGGCGCGAUAGCGCAAACGUCCUCAACCUCCAAUGCAUCCCCCCACAUGAUGAUGCCUGAAAAGCCUUGGUUUUUUG [G39A G48A C73A A100C G120A]" label=YES
seq_string="GACCAAUCUGCCCUCAGAGCUCGAGAACAUCUUCGGAUGCAGAGGACGCAGGCUUCGGUGGCGCGAUAGCGCCAACGUCCUCAACCUCCAAUGCAUCCCUCCACAUGAUGAUGCCUGAAGAGCCUUGGUUUUUUG [G47C A100U]" label=YES
seq_string="GACCAAUCUGCCCUCAGAGCUCGAGAACAUCUUCGGAUGCAGAGGAGGCAGGCUUCGGUGGCGCGAUAGCGGCAACGUCCUCGACCUCCAAUGCAUCCCACCACAUGAUGAUGCAUGAAGAGCCUUGGUUUUUUG [C72G A83G C115A]" label=NO

// query State whether the measured polymerase ribozyme fitness (log ratio) reaches -3, counting equality as reaching it, for GACCAAUCUGCCCUCAGAGCUCGAGAACAUCUUCGGAUGCAGAGGAGGCAGGCUUCGGUGGCGCGAUAGCGCCAACGUCCUCAACCUCCAAUGCAUCCCACCACAUGAUGAUGCCUGAAUAGGCUUGGUUUUUUG [G120U C123G]
// result YES

// query State whether the measured polymerase ribozyme fitness (log ratio) reaches -3, counting equality as reaching it, for GACCAAUCUGCCCUCAGAGCUCGAGAACAUCUUCGGAUGCAGAGGAGGCAGGCUUGGGUGGCGCGAUAGCGCCAACGUCCACAACCACCAAUGCAUCCCACCACAUGAUGAUGCCUGAAGAGCCUUGGUUUUUUG [C56G U81A U87A]
// result YES

// query Has GACCAAUCUGCCCUCAGGGCUCGAGAACAUCUUCGGAUGCAGAGGAGGCAGGCAUCGGUGGCGCGAUAGCGCCAACGUCCUCAACCUGCAAUGCAUCCCACCACAUGAUGCUCCCUGAAGAGCCAUGGUUUUUUG [A18G U54A C88G A111C G113C U125A] a recorded polymerase ribozyme fitness (log ratio) greater than or equal to -3?
// result NO

// query polymerase ribozyme fitness (log ratio) >= -3 for GACCAAUCUGCCCUCAGAGCUCGAGAACAUCUUCGGAUGCAGAGGAGGUAGGCUUCGGUGGCGCGAUACCGCCAACGUCCUCAACCUCCAAUGCAUCCCACCACAUGAUGAUGCCUGAAGAGCCUUGGUUUUUUG [C49U G69C] ?
// result YES

// query Could you please find out whether GACCAAUCUGCCCUCAGAGCUCGAGAACAUCUUCGUAUGCAGAGGAGGCAGGCUUCGGUGGCGCGAUAGCGCCAACGUCCUCAACCUCCAAUGCAUCCCACCACAUGAUGAUGCCUGUAGAGCCUUGGUUUUUUG [G36U A118U] has polymerase ribozyme fitness (log ratio) that meets -3 or exceeds it?
// result YES

// query Could you verify whether the entry GACCAAUCUGCCCUCAGAGCUCGAGAACAUCUUCGGAUGCAGAGGAGGCAGUCUUCGGUGGCGCGAUAGCGCCAACGUCCUCAACCUCCAAUGCAUCCCACCACAUGAUGAUGCCUGAAGAGCCGUGGUUUUUUG [G52U U125G] shows polymerase ribozyme fitness (log ratio) of no less than -3?
// result YES

// query Decide: polymerase ribozyme fitness (log ratio) of GACCAAUCUGCCCUCAGAGCUCGAGAACAUCUUAGGAUGCAGAGGAGGCAGGCUUCGGUAGCGCGAUAGCGGCAACGUCCUCAACCUUCAAUGCAUCCCACCACAUGAUGAUGCCUGAAGAGCCUUGGUUUUUUG [C34A G60A C72G C88U] >= -3?
// result NO

// query Kindly determine if polymerase ribozyme fitness (log ratio) recorded for GACCAAUCUGGCCUCAGAGCUCGAGAACAUCUUCGGAUGCAGAGGAGGCAGGGUUCGGUGGCGCGAUAGCGCCAACGUCCUCAACCUCCAAUGCAGCCCACCACCUGAUGAGGCCUGAAGAGCCUUGGUUUUUUG [C11G C53G U96G A105C U112G] is above or exactly -3.
// result NO

// query Check the entry GACCAAUCUGCGCUCAGAGCUCGAGAACAUCUUCGGAUGCAGAGGGGGCAGGCUUCGGUGGCACGAUAGCGCCAACGUCCUCAACCUCCAAUGCAUCCCACCACAUGAUGAUGCGUGAAGAGCCUUGGUUUUUUG [C12G A46G G63A C115G] : does polymerase ribozyme fitness (log ratio) equal or exceed -3?
// result NO

// query API: above_or_equal(metric=polymerase ribozyme fitness (log ratio), cutoff=-3) for item GACCCAUCUGCCCUCAGAGCUCGAGAACAUCUUCGGAUGCAGAGGAGGCAGGCUUCGGUGGCGCGAUAGCGCCAACGUCCUCAACCUCCAAUGCAUCCCACCACAUGAUGAGGCCUGAAGAGCCUUGGUCUUUUG [A5C U112G U130C]
// result YES

// query Hi, just wondering whether GACCAAUCUGCCCUCAGAGCUCGAGUACAUCUUCGGAUGCAGAGGAGGCAGGCUUCGGAGGCACGAUAGCGCCAACGUCCUCAACCUCCAAUGCAUCCCACCACAUGAUGAUGCCUGAAGAGCCUUGGUUUUUUG [A26U U59A G63A] shows polymerase ribozyme fitness (log ratio) of -3 or higher.
// result NO

// query polymerase ribozyme fitness (log ratio) >= -3 for GACCAAUCUGCCCUCAGAGCUCGAGAACAUCUUCGGAUGCAGAGGAGGCAGGCUUCGGUGGCGCGAUAGCGCCAACGUCCUCAACCUCCAAUACAUCCCACCACAUGAUGAUGCCUGAAGAGCCUUGAUUUUUUG [G93A G128A] ?
// result YES

// query Record GACCAAUCUGCCCUCAGAGCUCGAGAACAUCUUCGGAUGCAGAGGAGGCAGGCUUCGGUGGCGCGAUAGCGCCAGCGUCCUCAACCUCCAAUGCAUCCCACCACAUGAUGAAGCCUGAAGAGCCUUGGUUUUUUG [A75G U112A] ; criterion: polymerase ribozyme fitness (log ratio) no lower than -3. Met?
// result YES

// query Does polymerase ribozyme fitness (log ratio) meet or surpass -3 for GAGCAAUCUGCCCUCAGAGCUCGAGAACAUCUUCGGAUGCAGAGGUGGCAGGCUUCGGUGGCGCGAUAGCGACAACGUCCUCAACCUCCAAUGCAUCCCACCACAUGAUGAUCCCUGAAGAGCCUUGGUUUUUUG [C3G A46U C72A G113C] ?
// result NO
